Measured IC50 by item
- Test system: HCT116 WT cells
- method_description: HCT116 WT cell proliferation / viability (CellTiter-Glo, 6 days)
- Format: cell-based
- condition_set: Homo sapiens, HCT-116, 144 h, HCT116 WT cells, 6 days, CellTiter-Glo; read-out: HCT-116 WT IC50
Just the number in µM, nothing appended.

In [3]: df
Out[3]:
                                   molecule  assay_result
0  C[C@H](c1ncccn1)N(Cc1ccc(C2CC2)nn1)C(=O)c1ccc2nc(N)c3c(c2c1)COC3         0.361
1  Nc1nc2cnc(C(=O)N(Cc3ccc(C(F)(F)F)nn3)C3CCC3)cc2c2c1COC2          9.41
2  CC1OCc2c1c(N)nc1cnc(C(=O)N(C)Cc3ccc(Br)cn3)cc21 (racemic)          21.2
3  CC1OCc2c1c(N)nc1ccc(C(=O)N(Cc3ccc(C(F)(F)F)cn3)CC3CCOCC3)cc21 (stereo not drawn)          0.55
4  CC(c1ccc(C(F)(F)F)cn1)N(C)C(=O)c1cc2c3c(c(N)nc2cn1)COC3 (racemic)          4.25

Could you now consider this next molecule?
Inquiry: Can you share its IC50? I mean this molecule: CC(C)CN(Cc1ccc(C(F)(F)F)cn1)C(=O)c1ccc2nc(N)c3sccc3c2c1
Reply text: 3.22

* * *

- Test system: HCT116 WT cells
- method_description: HCT116 WT cell proliferation / viability (CellTiter-Glo, 6 days)
- Assay type: cell-based
- condition_set: Homo sapiens, HCT-116, 144 h, HCT116 WT cells, 6 days, CellTiter-Glo; read-out: HCT-116 WT IC50
observed_property: pIC50
Keep in mind that pIC50 stands for -log10 of concentration in molar terms.

Previously resolved entries follow.
>>> print(df.to_string())
                                   molecule  assay_result
0  COC[C@@H](C)N(Cc1ccc(C(F)(F)F)cn1)C(=O)c1cnc2nc(N)c3c(c2c1)COC3          5.99
1  CCN(Cc1ccc(OC(F)F)nn1)C(=O)c1ccc2nc(N)c3c(c2c1)CO[C@@H]3C          5.12
2  CC1OCc2c1c(N)nc1ccc(C(=O)N(Cc3ccc(C(F)(F)F)cn3)C3CCCC3C#N)cc21 (stereo not drawn)          6.96
3  CO[C@@H]1COCC[C@H]1N(Cc1ccc(C(F)(F)F)cn1)C(=O)c1ccc2nc(N)c3c(c2c1)COC3 (single isomer, unassigned) [Example 584]          6.79
4  C[C@H](c1cnc(C(F)(F)F)cn1)N(C)C(=O)c1cc2c(cc1F)nc(N)c1cnn(C)c12          5.93

Inquiry: Can you share its pIC50? I mean this molecule: C[C@H]1OCc2c1c(N)nc1ccc(C(=O)N(C)Cc3ccc(S(F)(F)(F)(F)F)cc3)cc21
Reply text: 5.49

Inquiry: Can you share its pIC50? I mean this molecule: COC[C@H](C1CC1)N(Cc1ccc(N2CCOCC2)nn1)C(=O)c1ccc2nc(N)c3c(c2c1)COC3
Reply text: 6.62

Inquiry: Can you share its pIC50? I mean this molecule: C[C@H]1OCc2c1c(N)nc1cnc(C(=O)N(Cc3ccc(C(F)(F)F)cn3)C3CC3)cc21
Reply text: 4.96

Inquiry: Can you share its pIC50? I mean this molecule: CCN(Cc1ccc(S(F)(F)(F)(F)F)cc1)C(=O)c1cc2c(cc1F)nc(N)c1cnn(C)c12
Reply text: 6.74
